Assignment: determine reported self-splicing fitness (ln) for the given sequences.
protocol details: self-splicing fitness, log relative to wild type (ln ratio); higher = more splicing; Tetrahymena group I intron in knt gene, E. coli kanamycin selection, DiMSum; sequences stand for … in CUCUCU…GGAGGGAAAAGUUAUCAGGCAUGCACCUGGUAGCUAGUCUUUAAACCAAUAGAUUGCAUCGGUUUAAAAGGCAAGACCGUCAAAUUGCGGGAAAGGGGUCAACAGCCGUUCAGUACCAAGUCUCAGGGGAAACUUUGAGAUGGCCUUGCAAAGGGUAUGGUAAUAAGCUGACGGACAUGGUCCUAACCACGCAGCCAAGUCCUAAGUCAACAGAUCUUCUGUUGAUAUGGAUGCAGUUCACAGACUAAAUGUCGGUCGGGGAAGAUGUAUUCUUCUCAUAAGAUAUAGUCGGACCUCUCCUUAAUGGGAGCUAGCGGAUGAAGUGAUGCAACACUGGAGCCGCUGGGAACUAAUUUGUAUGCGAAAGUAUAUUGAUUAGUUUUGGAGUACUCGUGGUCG;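 further: selection with 25 µg/mL kanamycin versus none on LB agar overnight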
recorded conditions: 30 °C
Enter a number only.

Request: Name the reported self-splicing fitness (ln) value associated with the sequence `GACGAGCAAUAUUACGCUCG`
Response: -1.59

Request: Name the reported self-splicing fitness (ln) value associated with the sequence `UCUAAGCAAUAUUACGCAUA`
Response: -1.86

Request: Name the reported self-splicing fitness (ln) value associated with the sequence `CUUGAGCAAUAUUACGACGC`
Response: -2.13

Request: Name the reported self-splicing fitness (ln) value associated with the sequence `CUGCAGCAAUAUUACGGUAU`
Response: -4.53

Request: Name the reported self-splicing fitness (ln) value associated with the sequence `ACCUAGCAAUAUUACGGUGC`
Response: -1.87

Request: Name the reported self-splicing fitness (ln) value associated with the sequence `AACUAGCAAUAUUACGUCAU`
Response: -2.91

Request: Name the reported self-splicing fitness (ln) value associated with the sequence `CCUCAGCAAUAUUACGUGGU`
Response: -3.93

Request: Name the reported self-splicing fitness (ln) value associated with the sequence `UGAUAGCAAUAUUACGUUAG`
Response: -1.92

Request: Name the reported self-splicing fitness (ln) value associated with the sequence `UUUCAGCAAUAUUACGAAUG`
Response: -0.511

Request: Name the reported self-splicing fitness (ln) value associated with the sequence `GCACAGCAAUAUUACGUUUU`
Response: -1.14

Request: Name the reported self-splicing fitness (ln) value associated with the sequence `UUAGAGCAAUAUUACGCGAA`
Response: -0.809

Request: Name the reported self-splicing fitness (ln) value associated with the sequence `AAAUAGCAAUAUUACGUUAU`
Response: -3.39

Request: Name the reported self-splicing fitness (ln) value associated with the sequence `CGAGAGCAAUAUUACGGGUG`
Response: -2.95

Request: Name the reported self-splicing fitness (ln) value associated with the sequence `GUGAAGCAAUAUUACGACUG`
Response: -1.37

Request: Name the reported self-splicing fitness (ln) value associated with the sequence `CCGGAGCAAUAUUACGGGUU`
Response: -3.85

Request: Name the reported self-splicing fitness (ln) value associated with the sequence `CCACAGCAAUAUUACGUCGG`
Response: -3.14

Request: Name the reported self-splicing fitness (ln) value associated with the sequence `GGCUAGCAAUAUUACGGCUG`
Response: 0.0242

Request: Name the reported self-splicing fitness (ln) value associated with the sequence `CGUCAGCAAUAUUACGCAAC`
Response: -3.74

Request: Name the reported self-splicing fitness (ln) value associated with the sequence `CUGCAGCAAUAUUACGGACU`
Response: -3.58

Request: Name the reported self-splicing fitness (ln) value associated with the sequence `GGUCAGCAAUAUUACGACAC`
Response: 0.184

Request: Name the reported self-splicing fitness (ln) value associated with the sequence `CACCAGCAAUAUUACGGGCU`
Response: -4.86

Request: Name the reported self-splicing fitness (ln) value associated with the sequence `CUAGAGCAAUAUUACGACUG`
Response: 0.0552

Request: Name the reported self-splicing fitness (ln) value associated with the sequence `GCAUAGCAAUAUUACGGAGG`
Response: -3.03

Request: Name the reported self-splicing fitness (ln) value associated with the sequence `CCCCAGCAAUAUUACGAAAA`
Response: -3.6

Request: Name the reported self-splicing fitness (ln) value associated with the sequence `GAGCAGCAAUAUUACGGGUG`
Response: -4.47

Request: Name the reported self-splicing fitness (ln) value associated with the sequence `GAUGAGCAAUAUUACGCCUU`
Response: -1.7

Request: Name the reported self-splicing fitness (ln) value associated with the sequence `ACAAAGCAAUAUUACGAGUG`
Response: -1.37

Request: Name the reported self-splicing fitness (ln) value associated with the sequence `UUCAAGCAAUAUUACGCAUC`
Response: -3.87

Request: Name the reported self-splicing fitness (ln) value associated with the sequence `GGACAGCAAUAUUACGAACA`
Response: -0.522

Request: Name the reported self-splicing fitness (ln) value associated with the sequence `CUGUAGCAAUAUUACGGUAA`
Response: -3.63

Request: Name the reported self-splicing fitness (ln) value associated with the sequence `UCAUAGCAAUAUUACGCUGG`
Response: -3.05

Request: Name the reported self-splicing fitness (ln) value associated with the sequence `UCCUAGCAAUAUUACGUUAC`
Response: -3.48

Request: Name the reported self-splicing fitness (ln) value associated with the sequence `UUAAAGCAAUAUUACGACUG`
Response: -0.0352

Request: Name the reported self-splicing fitness (ln) value associated with the sequence `UCUUAGCAAUAUUACGUGGU`
Response: -3.39

====

protocol details: self-splicing fitness, log relative to wild type (ln ratio); higher = more splicing; Tetrahymena group I intron in knt gene, E. coli kanamycin selection, DiMSum; sequences stand for … in CUCUCU…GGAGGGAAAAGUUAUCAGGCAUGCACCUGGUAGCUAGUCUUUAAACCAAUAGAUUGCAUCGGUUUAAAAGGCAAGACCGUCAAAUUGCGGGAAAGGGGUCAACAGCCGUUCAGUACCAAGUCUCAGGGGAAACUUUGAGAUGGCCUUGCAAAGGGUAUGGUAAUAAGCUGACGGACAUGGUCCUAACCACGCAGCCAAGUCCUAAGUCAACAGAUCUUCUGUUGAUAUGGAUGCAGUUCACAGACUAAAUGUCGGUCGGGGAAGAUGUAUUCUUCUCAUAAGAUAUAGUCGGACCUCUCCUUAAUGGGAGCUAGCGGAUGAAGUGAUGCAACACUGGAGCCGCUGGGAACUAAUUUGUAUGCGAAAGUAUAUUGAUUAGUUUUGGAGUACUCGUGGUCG
recorded conditions: 37 °C
Assignment: determine reported self-splicing fitness (ln) for the given sequences.
Enter a number only.

Request: Name the reported self-splicing fitness (ln) value associated with the sequence `CAAAAGCAAUAUUACGUUCA`
Response: -0.976

Request: Name the reported self-splicing fitness (ln) value associated with the sequence `AAAAAGCAAUAUUACGUACC`
Response: -0.0947

Request: Name the reported self-splicing fitness (ln) value associated with the sequence `UCAGAGCAAUAUUACGAUGU`
Response: -1.41

Request: Name the reported self-splicing fitness (ln) value associated with the sequence `UCAAAGCAAUAUUACGCAAG`
Response: -1.48

Request: Name the reported self-splicing fitness (ln) value associated with the sequence `UUGUAGCAAUAUUACGUGAA`
Response: -0.614

Request: Name the reported self-splicing fitness (ln) value associated with the sequence `CUUUAGCAAUAUUACGUGAC`
Response: -1.53

Request: Name the reported self-splicing fitness (ln) value associated with the sequence `AGGGAGCAAUAUUACGAUGG`
Response: -1.29

Request: Name the reported self-splicing fitness (ln) value associated with the sequence `CUAUAGCAAUAUUACGCUUC`
Response: -1.14

Request: Name the reported self-splicing fitness (ln) value associated with the sequence `UCUGAGCAAUAUUACGUUGA`
Response: -0.656

Request: Name the reported self-splicing fitness (ln) value associated with the sequence `CUGCAGCAAUAUUACGGUAA`
Response: -1.76

Request: Name the reported self-splicing fitness (ln) value associated with the sequence `GAACAGCAAUAUUACGGUGC`
Response: -1.22

Request: Name the reported self-splicing fitness (ln) value associated with the sequence `CCCGAGCAAUAUUACGCAAU`
Response: -2.94

Request: Name the reported self-splicing fitness (ln) value associated with the sequence `AUAAAGCAAUAUUACGCACG`
Response: -0.0827

Request: Name the reported self-splicing fitness (ln) value associated with the sequence `GGCAAGCAAUAUUACGUAUU`
Response: -0.183

Request: Name the reported self-splicing fitness (ln) value associated with the sequence `AGAAAGCAAUAUUACGUGAC`
Response: -1.65

Request: Name the reported self-splicing fitness (ln) value associated with the sequence `UUGGAGCAAUAUUACGCGCA`
Response: -1.09

Request: Name the reported self-splicing fitness (ln) value associated with the sequence `GCGCAGCAAUAUUACGCUCA`
Response: 0.238

Request: Name the reported self-splicing fitness (ln) value associated with the sequence `AGCGAGCAAUAUUACGAGCA`
Response: -0.526

Request: Name the reported self-splicing fitness (ln) value associated with the sequence `GCGUAGCAAUAUUACGCUUA`
Response: -2.06

Request: Name the reported self-splicing fitness (ln) value associated with the sequence `CUUGAGCAAUAUUACGUUCU`
Response: -3.71

Request: Name the reported self-splicing fitness (ln) value associated with the sequence `ACGUAGCAAUAUUACGCGGU`
Response: -2.33

Request: Name the reported self-splicing fitness (ln) value associated with the sequence `AGCGAGCAAUAUUACGAAUU`
Response: -1.41

Request: Name the reported self-splicing fitness (ln) value associated with the sequence `UCUGAGCAAUAUUACGAGGA`
Response: -3.29

Request: Name the reported self-splicing fitness (ln) value associated with the sequence `UCGUAGCAAUAUUACGGUUG`
Response: -1.05

Request: Name the reported self-splicing fitness (ln) value associated with the sequence `UACAAGCAAUAUUACGACAA`
Response: -0.403

Request: Name the reported self-splicing fitness (ln) value associated with the sequence `CGUGAGCAAUAUUACGUAUG`
Response: -0.0658

Request: Name the reported self-splicing fitness (ln) value associated with the sequence `CAGUAGCAAUAUUACGACAG`
Response: -0.214

Request: Name the reported self-splicing fitness (ln) value associated with the sequence `ACUUAGCAAUAUUACGGCUC`
Response: -0.503

Request: Name the reported self-splicing fitness (ln) value associated with the sequence `AAGAAGCAAUAUUACGAACU`
Response: 0.86

Request: Name the reported self-splicing fitness (ln) value associated with the sequence `UGAAAGCAAUAUUACGCCAC`
Response: -2.67

Request: Name the reported self-splicing fitness (ln) value associated with the sequence `AGUUAGCAAUAUUACGGCAG`
Response: -1.48

Request: Name the reported self-splicing fitness (ln) value associated with the sequence `UCAUAGCAAUAUUACGACCA`
Response: -0.568

Request: Name the reported self-splicing fitness (ln) value associated with the sequence `UACUAGCAAUAUUACGCGGG`
Response: -1.75

Request: Name the reported self-splicing fitness (ln) value associated with the sequence `GGCGAGCAAUAUUACGUAGA`
Response: -1.27
